Cited source: PubChem BioAssay

PROTOCOL_TEXT: viability loss in pontine glioma line – cell-based, SU-DIPG-XXV, MIPE5.0, CellTiter-Glo, qHTS, dose response (AID 1347065);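 note: cells exposed to compound for 48 hours before ATP readout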
MEASUREMENT_SETUP: CellTiter-Glo ATP luminescence
Inconclusive results are not listed. The source made the active and inactive calls. No cut-off is given here; in the data, nearly all actives have AC50 up to about 26 µM.
VALUE_KIND: AC50

MOLECULE: COC(=O)N1CCN(Cc2cccc(NC(=O)Nc3ccc(C)nc3)c2F)CC1
READOUT_VALUE: inactive
--
MOLECULE: CN(CC(=O)N(Cc1ccc(C2CCCCC2)cc1)c1ccc(C(=O)O)c(O)c1)S(=O)(=O)c1c(F)c(F)c(F)c(F)c1F
READOUT_VALUE: 9.34 µM (active)
--
MOLECULE: COc1ccc(-c2cc3c(C)nc(N)nc3n(C3CCC(OCCO)CC3)c2=O)cn1 (stereo not drawn)
READOUT_VALUE: 0.235 µM (active)
--
MOLECULE: COC(=O)N(CC(=O)O)Cc1cccc(OCc2nc(-c3ccc(Cl)cc3)oc2C)c1
READOUT_VALUE: inactive
--
MOLECULE: CN1CCN(Cc2ccc(NC(=O)Nc3ccc(Oc4cc(NC(=O)C5CC5)ncn4)cc3)cc2C(F)(F)F)CC1
READOUT_VALUE: 0.417 µM (active)
--
MOLECULE: Cc1noc(-c2ccc(-c3ccc(C4(C(=O)O)CC4)cc3)cc2)c1NC(=O)O[C@H](C)c1ccccc1
READOUT_VALUE: 23.5 µM (active)
--
MOLECULE: c1cc(-c2cnn3cc(-c4ccc(OCCN5CCCCC5)cc4)cnc23)ccn1
READOUT_VALUE: 11.8 µM (active)
--
MOLECULE: CCN(CC)CCn1c(=O)c(Cc2ccc(OC)cc2)nc2ccccc21
READOUT_VALUE: inactive
--
MOLECULE: CCCCCCCCc1ccc(CCC(N)(CO)CO)cc1
READOUT_VALUE: 10.5 µM (active)
--
MOLECULE: Cc1ccnc(NS(=O)(=O)c2ccc(NC(=O)Nc3ccc(S(=O)(=O)Nc4nccc(C)n4)cc3)cc2)n1
READOUT_VALUE: inactive
--
MOLECULE: O=c1c(-n2ccnn2)c[nH]n1-c1cc(N2CCOCC2)ncn1
READOUT_VALUE: 20.9 µM (active)
--
MOLECULE: COc1ccc(C2(C#N)CCC(C(=O)O)CC2)cc1OC1CCCC1 (stereo not drawn)
READOUT_VALUE: inactive
--
MOLECULE: C[C@@H](C(=O)Nc1ccc(Cl)cc1)C1CCC(c2ccnc3ccc(F)cc23)CC1 (stereo partly drawn)
READOUT_VALUE: inactive
--
MOLECULE: Cn1cc(-c2ccc3nnc(C(F)(F)c4ccc5ncccc5c4)n3n2)cn1
READOUT_VALUE: inactive
--
MOLECULE: O=C1NC(=O)[C@@H](c2c[nH]c3ccccc23)[C@H]1c1cn2c3c(cccc13)CCC2
READOUT_VALUE: 0.742 µM (active)
--
MOLECULE: Cc1ccc(C(=O)N(CCCN)[C@@H](c2oc3cc(Cl)ccc3c(=O)c2Cc2ccccc2)C(C)C)cc1
READOUT_VALUE: 0.0118 µM (active)
--
MOLECULE: C[C@@H](NCc1cc2ccccc2[nH]1)c1cccc2ccccc12
READOUT_VALUE: 26.3 µM (active)
--
MOLECULE: Cn1nccc1Nc1nccc(-c2ccn([C@H](CO)c3ccc(Cl)c(F)c3)c(=O)c2)n1
READOUT_VALUE: 18.6 µM (active)
--
MOLECULE: Nc1cccc2c1C(=O)N(C1CCC(=O)NC1=O)C2=O (stereo not drawn)
READOUT_VALUE: 0.00118 µM (active)
--
MOLECULE: O=c1cc(N2CCOCC2)oc2c(-c3cccc4c3sc3ccccc34)cccc12
READOUT_VALUE: 14.8 µM (active)
--
MOLECULE: C=C1[C@H](CO)[C@@H](O)C[C@@H]1n1cnc2c(=O)[nH]c(N)nc21
READOUT_VALUE: inactive
--
MOLECULE: CC(C)=CC[C@@H](O)C1=CC(=O)c2c(O)ccc(O)c2C1=O
READOUT_VALUE: 10.5 µM (active)
--
MOLECULE: CNS(=O)(=O)Nc1nccc(Cc2c(C)c3ccc(Oc4ncccn4)cc3oc2=O)c1F
READOUT_VALUE: 2.35 µM (active)
--
MOLECULE: CNC(=O)c1ccc(N2C(=S)N(c3cnc(C#N)c(C(F)(F)F)c3)C(=O)C23CCC3)cc1F
READOUT_VALUE: inactive
--
MOLECULE: CC(C)c1cc(C(=O)N2Cc3ccc(CN4CCN(C)CC4)cc3C2)c(O)cc1O
READOUT_VALUE: 0.525 µM (active)
--
MOLECULE: CC1(C)CCC(CN2CCN(c3ccc(C(=O)NS(=O)(=O)c4ccc(NCC5CCOCC5)c([N+](=O)[O-])c4)c(Oc4cnc5[nH]ccc5c4)c3)CC2)=C(c2ccc(Cl)cc2)C1
READOUT_VALUE: 0.417 µM (active)
--
MOLECULE: Cc1cc(C(=O)Nc2cc(Oc3ccc4nc(NC(=O)C5CC5)cn4n3)ccc2C)n(C)n1
READOUT_VALUE: 5.9 µM (active)
--
MOLECULE: COc1cc(N2CCC(N)CC2)ccc1Nc1ncc(Cl)c(-c2c[nH]c3ccccc23)n1
READOUT_VALUE: 0.209 µM (active)
--
MOLECULE: CCN(CC)C(=O)Cc1csc(NS(=O)(=O)c2cccc(Cl)c2C)n1
READOUT_VALUE: inactive
--
MOLECULE: Cc1cccc(-c2[nH]c(C(C)(C)C)nc2-c2ccc3nccnc3c2)n1
READOUT_VALUE: 10.5 µM (active)
--
MOLECULE: CNC(=O)Nc1ccc(-c2nc(N3CC4CCC(C3)O4)c3cnn(C4CCC5(CC4)OCCO5)c3n2)cc1
READOUT_VALUE: 0.332 µM (active)
--
MOLECULE: NC(=S)N/N=C/c1ncccc1N
READOUT_VALUE: 16.6 µM (active)
--
MOLECULE: Cc1cc(-c2cnn3c(NCC4CC(C)(O)C4)cc(Oc4cccnc4)nc23)ccc1C(=O)NC1CC1 (stereo not drawn)
READOUT_VALUE: 1.48 µM (active)
--
MOLECULE: O=C(Nc1ccccc1)Nc1ccc(-c2ccc(C(=O)[C@@H]3CCC[C@H]3C(=O)O)cc2)cc1
READOUT_VALUE: inactive
--
MOLECULE: C=CC(=O)N1CCC[C@@H](n2nc(-c3ccc(Oc4ccccc4)cc3)c3c(N)ncnc32)C1
READOUT_VALUE: 9.34 µM (active)
--
MOLECULE: O=C(Nc1cc(Cl)cc2c1[nH]c1cnccc12)c1cccnc1
READOUT_VALUE: inactive
--
MOLECULE: COc1ccc(-n2c(SCCCN3C(=O)c4cccc5cccc(c45)C3=O)nnc2-c2ccncc2)cc1
READOUT_VALUE: inactive
--
MOLECULE: COc1ncc(-c2ccc3c(Nc4cc(Oc5cc(F)cc(F)c5)cc(C(=O)O)c4)c(S(=O)(=O)NC4CC4)cnc3c2)c(OC)n1
READOUT_VALUE: inactive

----------
PROTOCOL_TEXT: growth inhibition of DIPG cells – cell-based, MIPE5.0 library, qHTS (AID 1347068);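 for IC50: cells exposed to compound for 48 hours before viability readout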
MEASUREMENT_SETUP: SU-DIPG-XXV viability
Inconclusive results are not listed. The source made the active and inactive calls. The limit is not given here; nearly all actives have IC50 up to about 30 µM.
Outcomes: 1 (active), -1 (inactive)

MOLECULE: CCC(C)CCCCC(=O)N[C@@H](CCN)C(=O)NC(C(=O)N[C@H](CCN)C(=O)N[C@@H]1CCNC(=O)C([C@@H](C)O)NC(=O)[C@@H](CCN)NC(=O)[C@@H](CCN)NC(=O)[C@@H](CC(C)C)NC(=O)[C@H](Cc2ccccc2)NC(=O)[C@H](CCN)NC1=O)[C@@H](C)O (stereo partly drawn)
CAT: -1
--
MOLECULE: CC(C)Nc1cc(-c2c[nH]c(C(=O)N[C@H](CO)c3cccc(Cl)c3)c2)c(Cl)cn1
CAT: 1
--
MOLECULE: C[C@@H](Oc1cc(C(=O)Nc2ccc(C(=O)N3CCN(C)CC3)cc2)nnc1N)c1c(Cl)ccc(F)c1Cl
CAT: 1
--
MOLECULE: COc1cc2c(cc1OC)CN(CCc1ccc(NC(=O)c3cc(OC)c(OC)cc3NC(=O)c3cnc4ccccc4c3)cc1)CC2
CAT: -1
--
MOLECULE: O=C(O)CNC(=O)c1nc(Cl)c2ccccc2c1O
CAT: -1
--
MOLECULE: CNC(=O)c1ccccc1Nc1nc(Nc2ccc3c(c2OC)CCC[C@@H](N2CCN(CCO)CC2)C3)ncc1Cl
CAT: 1
--
MOLECULE: CN1CC(=O)NC1=NC(=O)Nc1cccc(Cl)c1
CAT: -1
--
MOLECULE: C=C(c1ccc(C(=O)O)cc1)c1cc2c(cc1C)C(C)(C)CCC2(C)C
CAT: -1
